tested on: Stellaria media; test: Post-emergence herbicidal effect against STEME; assay type: in vivo; settings: 1280 g/ha, visual assessment about 3 weeks after treatment, 100% = plants have died, 0% = like control plants
Recorded Post-emergence action against STEME, one value per entry.
Quick note: give the figure in %, leave out the unit.

Compound	Assay System	Uom	Post-emergence action against STEME
O=C(O)CSc1nn(-c2ccccc2)c(-c2cncnc2)c1Br	Stellaria media	%	90
COC(=O)CNC(=O)CSc1nn(-c2ccccc2F)c(-c2ccc(F)c(F)c2)c1Cl	Stellaria media	%	90
CCOC(=O)C[S+]([O-])c1nn(-c2ccccc2F)c(-c2cncc(F)c2)c1Br (centres unmarked)	Stellaria media	%	100
O=C(O)CSc1nn(-c2ccccc2F)c(-c2cncc(Cl)c2)c1Br	Stellaria media	%	100
O=C(O)CSc1nn(-c2ccccc2F)c(-c2ccc(F)c(F)c2)c1Cl	Stellaria media	%	100

Lab book: Post-emergence action against STEME of "COC(=O)CNC(=O)CSc1nn(-c2ccccc2F)c(-c2ccccc2)c1Br" noted as 90

Lab book: Post-emergence action against STEME of "O=C(O)CSc1nn(-c2ccccc2F)c(-c2cncc(F)c2)c1Br" noted as 100

Lab book: Post-emergence action against STEME of "CCOC(=O)CSc1nn(-c2ccc(F)cc2F)c(-c2ccc(F)cc2)c1Br" noted as 90

Lab book: Post-emergence action against STEME of "CCOC(=O)CSc1nn(-c2cc(F)ccc2F)c(-c2ccc(F)c(F)c2)c1Br" noted as 100

Lab book: Post-emergence action against STEME of CCOC(=O)C[S+]([O-])c1nn(-c2ccccc2F)c(-c2cncc(Cl)c2)c1Br (centres unmarked) noted as 100

Lab book: Post-emergence action against STEME of "O=C(O)CSc1nn(-c2cccc(F)c2F)c(-c2ccccc2)c1Br" noted as 100
